Emax reference
targetDesc: melanocortin-4 receptor (Homo sapiens, UniProt P32245)
Construct: expressed in transfected cells; host or cells: HEK293 cells (membrane preparations)
Sequence (P32245 whole entry): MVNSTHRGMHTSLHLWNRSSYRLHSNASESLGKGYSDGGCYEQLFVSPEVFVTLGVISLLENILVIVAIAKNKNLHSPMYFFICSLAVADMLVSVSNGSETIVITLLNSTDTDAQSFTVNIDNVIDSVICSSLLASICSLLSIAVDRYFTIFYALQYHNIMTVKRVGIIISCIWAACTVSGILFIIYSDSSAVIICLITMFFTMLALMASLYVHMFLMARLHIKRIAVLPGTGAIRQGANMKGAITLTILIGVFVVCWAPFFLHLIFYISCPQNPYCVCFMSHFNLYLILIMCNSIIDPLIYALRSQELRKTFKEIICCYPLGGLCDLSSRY
assayProtocol: Functional assay (cAMP fluorescence polarization, membrane based, agonistic activity)
Assay type: biochemical
testContext: 2 h; read-out: % activation functional assay

molecule | Emax
COc1cccc(-c2nc3ccc(C(=O)N(CCC(C)C)CCC(C)C)cn3c2CN2CCC(N)C2)c1 (stereo not shown) [Example 123] | 0%
CC(C)CCN(CCC(C)C)C(=O)c1ccc2nc(-c3ccc4c(c3)NC(=O)CO4)c(CCCN3CCCC3)n2c1 [Example 43] | 0%
CC(C)CC1CCCN1C(=O)c1ccc2nc(-c3ccc(C#N)cc3)c(CCCN3CCCC3)n2c1 (stereo not shown) [Example 146] | 0%
CC(C)CCN(CCC(C)C)C(=O)c1ccc2nc(-c3cc[nH]c(=O)c3)c(CCCN(C)C)n2c1 [Example 88] | -2%
CC(C)CCN(CCC(C)C)C(=O)c1ccc2nc(-c3cc[nH]c(=O)c3)c(CCCN3CCCC3)n2c1 [Example 89] | -25%
CC(C)CCN(CCC(C)C)C(=O)c1ccc2nc(-c3ncco3)c(CCCN3CCC[C@H]3CO)n2c1 [Example 76] | 4%
CC(C)CCN(CCC(C)C)C(=O)c1ccc2nc(-c3ccc4c(c3)CCC(=O)N4)c(CCCN3CCCC3)n2c1 [Example 45] | 0%

----------
targetDesc: melanocortin-4 receptor (Homo sapiens, UniProt P32245)
Construct: expressed in transfected cells; host or cells: HEK293 cells (membrane preparations)
assayProtocol: Membrane binding assay (fluorescence polarization, competition with fluorescence labeled NDP-alpha-MSH)
testContext: read-out: hMC-4R binding assay IC50/μM
The compounds listed here are annotated with their IC50.

mol | IC50
COc1cccc(-c2nc3ccc(C(=O)N(CCC(C)C)CCC(C)C)cn3c2CCCN2CCNCC2)c1 | > 1 µM
Cc1ccc(-c2nc3ccc(C(=O)N(CCC(C)C)CCC(C)C)cn3c2CCCN2CCCC2)nc1 | < 0.1 µM
COc1cccc(-c2nc3ccc(C(=O)N(CCC(C)C)CCC(C)C)cn3c2CN2CCC(N)CC2)c1 | 0.1 to 1 µM

----------
targetDesc: melanocortin-4 receptor (Homo sapiens)
Construct: expressed in transfected cells; host or cells: HEK293 cells (membrane preparations)
assayProtocol: Membrane binding assay (fluorescence polarization, competition with fluorescence labeled NDP-alpha-MSH)
testContext: read-out: hMC-4R binding assay IC50/μM
IC50 listing for selected compounds.

mol | IC50
CC(C)CCN(CCC(C)C)C(=O)c1ccc2nc(-c3ccc(=O)n(CCCO)c3)c(CCCN3CCCC3)n2c1 | 0.1 to 1 µM
CC(C)CCN(CCC(C)C)C(=O)c1ccc2nc(-c3ccc(C#N)cc3)c(CCCN3CCCC3)n2c1 | < 0.1 µM
CCN(C)CCCCc1c(-c2ccc(Cl)cc2)nc2ccc(C(=O)N(CCC(C)C)CCC(C)C)cn12 | 0.1 to 1 µM
CC(C)CCN(CCC(C)C)C(=O)c1ccc2nc(-c3ccc(C#N)cc3)c(CN3CCC(N)CC3)n2c1 | 0.1 to 1 µM
Cc1cccc(-c2nc3ccc(C(=O)N(CCC(C)C)CCC(C)C)cn3c2CCCN2CCCC2)n1 | < 0.1 µM
CC(C)CCN(CCC(C)C)C(=O)c1ccc2nc(-c3ccc4c(c3)CCC(=O)N4)c(CN3CCC(N)CC3)n2c1 | 0.1 to 1 µM
CC(C)CCN(CCC1CC1)C(=O)c1ccc2nc(-c3ccc(C#N)cc3)c(CCCN3CCCC3)n2c1 | < 0.1 µM
CC(C)CCN(CCC(C)C)C(=O)c1ccc2nc(-c3cccnc3N)c(CCCN(C)C)n2c1 | > 1 µM
CC(C)CCN(CCC(C)C)C(=O)c1ccc2nc(-c3ncco3)c(CCCN3CCC[C@H]3C)n2c1 | < 0.1 µM

----------
Recorded Emax for the following compounds
targetDesc: melanocortin-4 receptor (Homo sapiens)
Construct: expressed in transfected cells; host or cells: HEK293 cells (membrane preparations)
assayProtocol: Functional assay (cAMP fluorescence polarization, membrane based, agonistic activity)
Format: biochemical
testContext: 2 h; read-out: % activation functional assay

compound | targetDesc | Emax
CC(C)CCN(CCC(C)C)C(=O)c1ccc2nc(-c3ccc(=O)[nH]c3)c(CCCN3CCCC3C)n2c1 (stereo not shown) | melanocortin-4 receptor (Homo sapiens) | -22%
CC(C)CCN(CCC(C)C)C(=O)c1ccc2nc(-c3ccc4c(c3)NC(=O)CO4)c(CN3CCC(N)CC3)n2c1 | melanocortin-4 receptor (Homo sapiens) | 0%
CC(C)CCN(CCC(C)C)C(=O)c1ccc2nc(-c3ccc(=O)[nH]c3)c(CCCN3CCCC3)n2c1 | melanocortin-4 receptor (Homo sapiens) | 0%
CC(C)CCN(CCC(C)C)C(=O)c1ccc2nc(-c3ccc(=O)n(CCO)c3)c(CCCN3CCCC3)n2c1 | melanocortin-4 receptor (Homo sapiens) | -9%
COc1ccc(-c2nc3ccc(C(=O)N(CCC(C)C)CCC(C)C)cn3c2CN2CCC(N)CC2)cc1OC | melanocortin-4 receptor (Homo sapiens) | 0%
CC(C)CCN(CCC(C)C)C(=O)c1ccc2nc(-c3ccc(C#N)cc3)c(CCN3CCCC3)n2c1 | melanocortin-4 receptor (Homo sapiens) | 0%
CC(C)CCN(CCC(C)C)C(=O)c1ccc2nc(-c3ccc(N(C)C)nc3)c(CCCN(C)C)n2c1 | melanocortin-4 receptor (Homo sapiens) | 0%

// provenance: patent US8236818B2
